Assayed System: EGF receptor tyrosine kinase (Homo sapiens)
Construct: Receptor tyrosine kinase was obtained in partially purified form from A-431 cells; endogenous in cells; host or cells: A-431 cells (human vulval carcinoma), Triton X-100 solubilised membrane fraction
Sequence (P00533 25-1210): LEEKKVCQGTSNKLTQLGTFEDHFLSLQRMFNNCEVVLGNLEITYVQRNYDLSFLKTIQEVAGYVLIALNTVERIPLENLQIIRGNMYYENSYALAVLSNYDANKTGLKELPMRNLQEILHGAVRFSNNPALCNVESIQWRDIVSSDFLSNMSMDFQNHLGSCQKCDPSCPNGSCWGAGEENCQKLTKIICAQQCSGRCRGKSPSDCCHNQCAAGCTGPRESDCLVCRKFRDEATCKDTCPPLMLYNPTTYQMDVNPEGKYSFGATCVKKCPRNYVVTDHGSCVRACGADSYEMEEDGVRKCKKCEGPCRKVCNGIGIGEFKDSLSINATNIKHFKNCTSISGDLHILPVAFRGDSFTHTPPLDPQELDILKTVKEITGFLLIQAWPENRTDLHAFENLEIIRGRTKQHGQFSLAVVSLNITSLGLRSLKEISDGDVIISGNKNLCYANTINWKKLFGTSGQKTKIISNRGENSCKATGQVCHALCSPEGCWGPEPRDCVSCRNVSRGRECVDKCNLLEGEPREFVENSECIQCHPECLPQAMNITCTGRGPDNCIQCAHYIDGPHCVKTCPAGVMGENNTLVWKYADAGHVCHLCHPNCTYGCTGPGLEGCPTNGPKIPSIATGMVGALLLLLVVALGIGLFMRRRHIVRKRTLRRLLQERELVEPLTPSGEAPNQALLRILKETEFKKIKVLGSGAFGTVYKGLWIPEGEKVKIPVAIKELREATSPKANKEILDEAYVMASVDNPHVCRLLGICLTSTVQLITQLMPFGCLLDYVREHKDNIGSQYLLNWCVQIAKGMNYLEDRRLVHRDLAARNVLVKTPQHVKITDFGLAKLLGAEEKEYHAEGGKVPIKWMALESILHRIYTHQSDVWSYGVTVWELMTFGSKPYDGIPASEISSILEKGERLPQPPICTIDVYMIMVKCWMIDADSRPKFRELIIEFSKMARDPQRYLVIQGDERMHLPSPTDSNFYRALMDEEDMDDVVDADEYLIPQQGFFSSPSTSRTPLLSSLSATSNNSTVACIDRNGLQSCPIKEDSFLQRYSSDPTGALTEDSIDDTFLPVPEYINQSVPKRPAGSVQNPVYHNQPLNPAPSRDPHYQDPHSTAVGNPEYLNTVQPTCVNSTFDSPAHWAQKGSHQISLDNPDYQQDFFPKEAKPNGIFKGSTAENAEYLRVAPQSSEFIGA
Sequence (P01133 971-1023 partner limits assumed): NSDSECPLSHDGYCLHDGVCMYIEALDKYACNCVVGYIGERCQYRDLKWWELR
Protocol Notes: in vitro inhibition of the enzyme EGF receptor tyrosine kinase (Test (a))
Format: biochemical
Conditions: receptor tyrosine kinase from A-431 cells
Parameter Measured: IC50 (nM)
Give bare numbers, in nM.

IC50 for EGF receptor tyrosine kinase (Homo sapiens) with input "Fc1ccc(Nc2ncnc3cc(-c4csc(CN5CCOCC5)c4)ccc23)cc1Cl" equals 42
